Data origin, for the record: ChEMBL document CHEMBL4689842

Test system: HEK-293T
Assay: Multiplex assay against HEK293T
Type: toxicity, cell-based
Conditions: human, 48 h, 1 µM, compound concentration 1 uM, replicate 1
Below, each entry is listed alongside its reported Population Normal (%).
Measurement Type: Population Normal (%)

1) Cc1ccc(C(=O)Nc2cccc(C(F)(F)F)c2)cc1Nc1nc(-c2cccnc2)nc2c1cnn2C : 84
2) Cl.O=c1c2cccn2c2ccccc2n1CCCN1CCC(c2ccc(Cl)cc2)CC1 : 92
3) CCOc1cc2ncc(C#N)c(Nc3ccc(OCc4ccccn4)c(Cl)c3)c2cc1NC(=O)/C=C/CN(C)C : 76
4) O=C(Cc1ccc(-c2ccc(OCCN3CCOCC3)cc2)cn1)NCc1ccccc1 : 83
5) O=C(Nc1ccc(-n2nc(-c3cccnc3)cc2C(F)(F)F)cn1)c1ccc(-c2ccccc2)c(F)c1 : 81
6) CCc1cccc(CC)c1NC(=O)c1nn(C)c2c1CCc1cnc(Nc3ccc(C(=O)NC4CCN(C)CC4)cc3OC(F)(F)F)nc1-2 : 87
7) CCn1c(=O)c(-c2ccc(-c3cncs3)cc2Cl)cc2cnc(Nc3ccc(N4CCN(C)CC4)cc3)nc21 : 86
8) CCCS(=O)(=O)c1nc(NC2CC2)cc(-c2ccc3c(ccn3C3CC(C)(C)NC(C)(C)C3)c2)n1 : 82
9) Cl.Oc1ccc2c3c1O[C@H]1c4[nH]c5c(c4C[C@@]4(O)[C@@H](C2)N(CC2CC2)CC[C@]314)C[C@@]1(O)[C@H]2Cc3ccc(O)c4c3[C@@]1(CCN2CC1CC1)[C@H]5O4 : 87
10) CN1C2CCC1CC(OC(c1ccc(F)cc1)c1ccc(F)cc1)C2.Cl (centres undefined) : 80
11) Cc1cc(C)c(S(=O)(=O)N(Cc2ccc(-c3cccc(S(C)(=O)=O)c3)cc2)Cc2ccc(C(F)(F)F)o2)c(C)c1 : 91
12) CCOc1cc(C(=O)N2CCC(N3CCN(C)CC3)CC2)ccc1Nc1ncc2c(n1)N(C1CCCC1)c1ccccc1C(=O)N2C : 79
13) CCCn1c(=O)c2[nH]c(-c3cnn(Cc4cccc(C(F)(F)F)c4)c3)nc2n(CC)c1=O : 80
14) CCOC(=O)c1c(C)[nH]c2ccc3c(c12)CN1CCc2cc(OC)ccc2C1O3 (centres undefined) : 92

====

Test system: U2OS
Assay: Incucyte cell viability with U2OS; also: filed as whole numbers so only -1 and 0 and 1 occur
Assay type: toxicity, cell-based
Details: human, 12 h, 10 µM, compound concentration 10 uM, replicate number 1, timepoint 12 hours
Below, each entry is listed alongside its reported Growth Rate.
Measurement Type: Growth Rate

1) C[C@@H](c1cccc(C#N)c1)n1cc(Cl)cc(C(N)=O)c1=N.Cl : 1
2) CCN(CC)S(=O)(=O)Nc1cccc(-c2ccc3c(NC(=O)C4CC4)n[nH]c3c2)c1 : 0
3) Cn1nc(C(F)(F)F)cc1-c1cnc(N2CCc3cc(S(=O)(=O)Nc4c(F)cc(Cl)cc4F)cc(N4CCCC4=O)c32)nc1 [TP-020] : 1
4) Cc1oncc1C(=O)Nc1ccc(C(F)(F)F)cc1 [LEFLUNOMIDE] : 1
5) COc1cc(-c2cn(C)c(=O)c3cnccc23)c(OC)cc1CN(C)C : 1

====

System: Fibroblast
Assay: Incucyte cell viability with human fibroblast; also: filed as whole numbers so only -1 and 0 and 1 occur
Format: toxicity, cell-based
Conditions: 18 h, 10 µM, compound concentration 10 uM, replicate number 1, timepoint 18 hours
Below, each entry is listed alongside its reported Growth Rate.
Measurement Type: Growth Rate

1. C=CCn1c(=O)c2cnc(Nc3ccc(N4CCN(C)CC4)cc3)nc2n1-c1cccc(C(C)(C)O)n1 : 0
2. Cn1nc(C(=O)NCc2ccc(C(=O)O)cc2)cc1-c1ccc2[nH]ccc2c1 : 1
3. CCCNS(=O)(=O)Nc1ncnc(OCCOc2ncc(Br)cn2)c1-c1ccc(Br)cc1 : 1
4. CNC(=O)c1ccc(Nc2nc(OC3CCCC3)c3c(-c4ccc5nc(C)oc5c4)c[nH]c3n2)c(OC)c1 : 0
5. CN([C@@H](Cc1ccc(OS(=O)(=O)c2cccc3cnccc23)cc1)C(=O)N1CCN(c2ccccc2)CC1)S(=O)(=O)c1cccc2cnccc12 : 1
